From: patent US10390536B2

Tested on: sand fly Lutzomyia longipalpis
ASSAY_PROTOCOL: warm body repellence assay with sand flies
Format: in vivo
RUN_PARAMETERS: 20 nmol/cm^2; 2 minutes; control 48
Here, each record is paired with measured Median of landings data.

COMPOUND	Median of landings
Cc1ccc(C(C)C)cc1O	23
CCN(CC)C(=O)c1cccc(C)c1 [DEET, N,N-diethyl-3-methylbenzamide, reference compound]	6
CCCCOC(=O)C=Cc1ccccc1 [butyl-cinnamate, butyl 3-phenylprop-2-enoate]	49
CC(C)c1ccc(C(=O)O)cc1	16

----------
Tested on: Anopheles gambiae (Giles) ss strain 16CSS female mosquitoes
ASSAY_PROTOCOL: warm body repellence assay (mosquito landings)
Assay type: in vivo
RUN_PARAMETERS: Anopheles gambiae, 2 min; 20 nmole per cm^2; read-out: Median Repellency (%)
Please respond with criterion met when measured median repellency (%) at 20 nmol/cm2 is strictly beneath 80%, and with criterion not met in all other cases.

MOLECULE	ASSIGNED_CATEGORY
CCOC(=O)C=Cc1ccccc1 [(E)-ethyl-cinnamate, ethyl 3-phenylprop-2-enoate]	criterion not met
COC(=O)C=Cc1ccccc1 [methyl-trans-cinnamate, methyl 3-phenylprop-2-enoate]	criterion met
CC(C)c1ccc(C(=O)O)cc1 [cuminic acid]	criterion met
CCN(CC)C(=O)c1cccc(C)c1 [DEET, N,N-diethyl-3-methylbenzamide, reference compound]	criterion not met
CCCCOC(=O)C=Cc1ccccc1 [butyl-cinnamate, butyl 3-phenylprop-2-enoate]	criterion not met
